Hi there, I'd appreciate the recorded EC50 for every entry that follows.
# targetUnderTest: UniProt:P35414
# Sequence (P35414 whole entry): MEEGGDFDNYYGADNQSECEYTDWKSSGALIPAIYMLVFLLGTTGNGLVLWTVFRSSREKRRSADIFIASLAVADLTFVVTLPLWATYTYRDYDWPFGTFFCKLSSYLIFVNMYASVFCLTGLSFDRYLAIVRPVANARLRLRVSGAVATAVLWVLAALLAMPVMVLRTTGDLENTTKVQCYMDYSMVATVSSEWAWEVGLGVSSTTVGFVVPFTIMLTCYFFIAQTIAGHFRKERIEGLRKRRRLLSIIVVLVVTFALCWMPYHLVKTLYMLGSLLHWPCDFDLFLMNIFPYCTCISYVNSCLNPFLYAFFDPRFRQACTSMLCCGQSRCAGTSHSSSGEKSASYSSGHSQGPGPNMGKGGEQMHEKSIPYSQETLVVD
# testName: biochemical
# conditions: [35S]GTPγS binding, CHO membranes expressing human APJ receptor; read-out: Activity hAPJ SPA EC50 IP
Answers are plain numbers, in nM.

Here are 5 molecules together with their reported answers.
CNC(=O)n1ccc(-c2nnc(NS(=O)(=O)[C@@H](C)Cc3ncc(F)cn3)n2-c2c(OC)cccc2OC)n1 (racemic) [Example 72.0] ... 41
CO[C@H](c1ncc(Cl)cn1)[C@H](C)S(=O)(=O)Nc1nnc(-c2n[nH]c3c2CCC3)n1C1(C)CCC1 ... 34
COc1cccc(OC)c1-n1c(NS(=O)(=O)[C@@H](C)[C@H](OC)c2ncc(Cl)cn2)nnc1-c1n[nH]c2ccc(Cl)cc12 ... 6.2
COc1cccc(OC)c1-n1c(NS(=O)(=O)[C@@H](C)[C@@H](OC(C)C)c2ncc(C)cn2)nnc1-c1cnn2c1CCC2 ... 0.74
CCn1ccc(-c2nnc(NS(=O)(=O)[C@@H](C)[C@H](C)c3ncc(C)cn3)n2-c2c(OC)cccc2OC)n1 ... 0.34

I have 2 molecules here; please give me EC50 for each one.
1. COc1cccc(OC)c1-n1c(NS(=O)(=O)[C@@H](C)[C@H](C)c2ncc(Cl)cn2)nnc1-c1ccn(C(F)F)n1
2. COc1cccc(OC)c1-n1c(NS(=O)(=O)CCc2ccc(Cl)cc2)nnc1-c1cnco1

[0.11, 586]
